Reference for the values: paper PMC9482650

Examples of binders with documented pKd follow.
Biological target: T1, SNTA1, Q13424
T1 sequence (Q13424 82-180, limits assumed, looked up): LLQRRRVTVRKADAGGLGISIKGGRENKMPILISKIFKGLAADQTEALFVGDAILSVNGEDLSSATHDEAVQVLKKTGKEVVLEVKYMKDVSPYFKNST
Assay: holdup assay
Design: key: below the threshold = too weak to quantify, mostly under pKd 3.1 to 4
Settings: plain residues with an end cap or a label only (N-terminal biotin on a linker: ahx)
A bare number is all that is needed in reply.

# count of solved cases: 2
HSATSVHTSV [MTMR1, Q13613] :: 3.65
ADENEQVSAV [RAPGEF6, Q8TEU7] :: 3.64

Q: Quick check: pKd of KEYDDELTFF [USH1C, Q9Y6N9] ?
Ans: 3.49

Q: Quick check: pKd of YNSFLSVTTV [PDZRN3, Q9UPQ7] ?
Ans: 3.76
